Data origin, for the record: the supplement of paper PMC6555819

Tested on: PPARa:RXRa (NR concentration 270 nM, RXRa partner concentration 90 nM)
experiment_notes: PBM binding z-score (relative to random genomic background probes); higher = stronger binding; sequences stand for … in GC…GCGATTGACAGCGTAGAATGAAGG
1 means recorded PBM binding z-score is 3 or above; 0 means it is below 3.

residues=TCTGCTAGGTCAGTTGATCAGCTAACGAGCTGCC group_label=0
residues=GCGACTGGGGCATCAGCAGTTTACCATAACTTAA group_label=0
residues=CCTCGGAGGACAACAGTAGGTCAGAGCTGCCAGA group_label=0
residues=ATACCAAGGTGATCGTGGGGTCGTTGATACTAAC group_label=0
residues=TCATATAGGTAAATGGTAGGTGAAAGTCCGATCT group_label=0
residues=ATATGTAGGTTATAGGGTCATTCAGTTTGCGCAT group_label=1
residues=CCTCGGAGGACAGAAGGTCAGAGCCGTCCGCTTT group_label=0
residues=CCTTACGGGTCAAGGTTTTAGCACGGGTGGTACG group_label=1
residues=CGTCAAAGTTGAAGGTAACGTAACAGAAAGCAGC group_label=0
residues=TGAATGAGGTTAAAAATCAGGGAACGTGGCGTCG group_label=0
residues=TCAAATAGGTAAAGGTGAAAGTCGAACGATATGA group_label=1
residues=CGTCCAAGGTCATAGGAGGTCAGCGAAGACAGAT group_label=1
residues=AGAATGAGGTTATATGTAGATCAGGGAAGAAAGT group_label=1
residues=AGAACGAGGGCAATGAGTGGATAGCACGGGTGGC group_label=0
residues=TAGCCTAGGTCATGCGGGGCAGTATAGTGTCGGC group_label=1
residues=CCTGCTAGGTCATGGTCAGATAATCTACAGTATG group_label=1
residues=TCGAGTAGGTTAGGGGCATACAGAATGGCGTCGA group_label=0
residues=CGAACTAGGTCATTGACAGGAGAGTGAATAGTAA group_label=1
residues=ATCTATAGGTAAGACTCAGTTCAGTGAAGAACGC group_label=0
residues=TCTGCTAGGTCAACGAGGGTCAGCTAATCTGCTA group_label=1
residues=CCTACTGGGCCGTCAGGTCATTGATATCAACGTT group_label=0
residues=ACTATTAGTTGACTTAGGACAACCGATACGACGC group_label=0
residues=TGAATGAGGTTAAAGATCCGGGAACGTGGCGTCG group_label=1

----------
Recorded PBM binding z-score, one value per entry.
Tested on: RARb homodimer (NR concentration 270 nM)
experiment_notes: PBM binding z-score (relative to random genomic background probes); higher = stronger binding; sequences stand for … in GC…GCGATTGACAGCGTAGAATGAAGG
readout_label: PBM binding z-score

residues=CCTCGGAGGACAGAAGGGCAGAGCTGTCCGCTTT target_under_test="RARb homodimer (NR concentration 270 nM)" meas_value=0.947
residues=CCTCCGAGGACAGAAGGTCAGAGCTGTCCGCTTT target_under_test="RARb homodimer (NR concentration 270 nM)" meas_value=3.67
residues=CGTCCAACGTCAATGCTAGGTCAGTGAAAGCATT target_under_test="RARb homodimer (NR concentration 270 nM)" meas_value=2.01

----------
System: VDR homodimer (NR concentration 270 nM)
experiment_notes: PBM binding z-score (relative to random genomic background probes); higher = stronger binding; sequences stand for … in GC…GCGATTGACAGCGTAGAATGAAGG
# PBM binding z-score binned as lower band (below 0.3), central band (0.3 to below 2), upper band (2 or more)

residues=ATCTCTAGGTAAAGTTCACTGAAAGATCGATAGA group_label="upper band"
residues=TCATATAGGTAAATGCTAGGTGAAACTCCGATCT group_label="central band"
residues=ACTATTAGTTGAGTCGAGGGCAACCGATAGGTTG group_label="central band"
residues=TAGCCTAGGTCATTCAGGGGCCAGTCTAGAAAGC group_label="central band"
residues=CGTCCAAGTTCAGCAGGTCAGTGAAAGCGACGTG group_label="upper band"
residues=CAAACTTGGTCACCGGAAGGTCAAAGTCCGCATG group_label="upper band"
residues=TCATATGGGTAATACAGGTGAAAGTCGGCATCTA group_label="lower band"
residues=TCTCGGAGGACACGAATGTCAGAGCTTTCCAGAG group_label="lower band"
residues=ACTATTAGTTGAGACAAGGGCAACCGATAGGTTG group_label="central band"
residues=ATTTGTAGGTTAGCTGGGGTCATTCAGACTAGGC group_label="upper band"
residues=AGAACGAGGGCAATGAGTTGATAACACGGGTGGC group_label="upper band"
residues=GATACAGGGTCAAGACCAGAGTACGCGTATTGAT group_label="upper band"
residues=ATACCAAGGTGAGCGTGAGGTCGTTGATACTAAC group_label="upper band"
residues=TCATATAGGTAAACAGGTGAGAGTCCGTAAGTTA group_label="central band"
residues=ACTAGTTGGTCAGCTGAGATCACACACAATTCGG group_label="lower band"
residues=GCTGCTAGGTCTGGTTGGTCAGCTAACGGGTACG group_label="lower band"
residues=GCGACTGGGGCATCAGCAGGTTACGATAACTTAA group_label="lower band"
residues=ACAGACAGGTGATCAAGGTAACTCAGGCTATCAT group_label="lower band"
residues=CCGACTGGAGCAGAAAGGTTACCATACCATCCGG group_label="lower band"
residues=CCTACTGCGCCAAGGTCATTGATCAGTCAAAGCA group_label="upper band"
